- study-target: T1, in vitro translated 35S-labeled CBP (1621-1877) (UniProt P45481 1621-1877)
- T1 construct: also called in vitro translated CBP II
- T1 sequence (looked up): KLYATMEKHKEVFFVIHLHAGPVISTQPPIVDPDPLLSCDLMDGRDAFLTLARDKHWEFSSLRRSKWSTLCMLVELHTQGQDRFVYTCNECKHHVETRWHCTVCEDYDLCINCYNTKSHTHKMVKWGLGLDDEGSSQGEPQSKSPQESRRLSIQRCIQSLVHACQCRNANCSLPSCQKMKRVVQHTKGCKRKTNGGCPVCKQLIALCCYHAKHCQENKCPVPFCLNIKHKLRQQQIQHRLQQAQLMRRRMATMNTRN
- assay-info: GST-E6 fragment micro-affinity column

binder	binding result
GST-16E6 C-terminal half (85-151) (other) GTTLEQQYNKPLCDLLIRCINCQKPLCPEEKQRHLDKKQRFHNIRGRWTGRCMSCCRSSRTRRETQL	binds
LIRCINCQKPLCPEEKQRHLDKKQRFHNIRGRWTGRCMSCCRSSRTRR (other) [GST-16E6 (amino acids 100-147)]	binds
GST-16E6 without C-terminal residues 148-151 (other) MFQDPQERPRKLPQLCTELQTTIHDIILECVYCKQQLLRREVYDFAFRDLCIVYRDGNPYAVCDKCLKFYSKYSEYRHYCYSLYGTTLEQQYNKPLCDLLIRCINCQKPLCPEEKQRHLDKKQRFHNIRGRWTGRCMSCCRSSRTRR	binds
